Origin of measurements: ChEMBL document CHEMBL5154835

assay: AUC (0 to infinity) in Sprague-Dawley rat at 10 mg/kg, IG measured upto 8 hrs by LC-MS/MS analysis; assay type: ADME, organism-based; design: dose 10 mg/kg, time < 8 hrs, route ig; details: in vivo, po
readout_label: AUC(0-inf) (ng·h/mL)

[[record]]
record_smiles = "CS(=O)(=O)Nc1ccc(/C(=C\\n2cnc(-c3cc(C(F)(F)F)cc(C(F)(F)F)c3)n2)C(N)=O)cc1"
readout_label = "AUC(0-inf)"
reported_measurement = 6390


* * *

experiment: Metabolic stability in rat liver microsomes assessed as compound remaining preincubated for 5 mins measured upto 60 mins in presence of NADPH by LC/MS analysis; type: ADME, Microsome; settings: time < 65 min, read-out: Stability
readout_label: remaining at 1 h (%)

[[record]]
record_smiles = "CS(=O)(=O)Nc1ccc(/C(=C\\n2cnc(-c3cc(C(F)(F)F)cc(C(F)(F)F)c3)n2)C(N)=O)cc1"
reported_measurement = 85

